System: A549
Assay: Concentration required for growth inhibition of human lung cancer cells (A549)
Format: functional
Binning of GI50 into classes: lower segment (below 10 µM), middle segment (10 µM to below 30 µM), upper segment (30 µM or more)

Answered cases to consult:
{"Compound": "CC(=O)Nc1ccc(S(=O)(=O)Nc2ccc(C)c(O)c2)cc1", "Answer label": "upper segment"}
{"Compound": "COc1ccc(S(=O)(=O)Nc2ccc(C)c(O)c2)cc1", "Answer label": "upper segment"}

Which class holds CC(C)(C)c1ccc(S(=O)(=O)Nc2cccc(O)c2)cc1 ?
middle segment

Which class holds Cc1ccc(NS(=O)(=O)c2ccc([N+](=O)[O-])cc2)cc1O ?
middle segment

Which class holds Cc1cc(C2(c3ccccc3)C(=O)Nc3ccccc32)c(NS(=O)(=O)c2ccc(-c3ccccc3)cc2)cc1O (configuration not stated) ?
lower segment

---

System: A549
Assay: Concentration required for growth inhibition of human lung cancer cells (A549)
Type: functional
Measurement name: GI50

Worked cases, GI50 given:
{"Molecule": "Cc1ccc(NS(=O)(=O)c2ccc(I)cc2)cc1O", "Measurement target": "A549", "GI50": "15 µM"}
{"Molecule": "Cc1ccc(NS(=O)(=O)c2ccc(-c3ccccc3)cc2)cc1O", "Measurement target": "A549", "GI50": "9 µM"}
{"Molecule": "Cc1ccc(NS(=O)(=O)c2ccc(C(C)(C)C)cc2)c(O)c1", "Measurement target": "A549", "GI50": "8 µM"}
{"Molecule": "Cc1cc(C2(c3ccccc3)C(=O)Nc3ccccc32)c(NS(=O)(=O)c2ccc(Oc3ccccc3)cc2)cc1O (configuration not stated)", "Measurement target": "A549", "GI50": "5 µM"}
{"Molecule": "CC(C)(C)c1ccc(S(=O)(=O)Nc2ccc(O)cc2)cc1", "Measurement target": "A549", "GI50": "14 µM"}

// for each molecule in input: emit GI50
1. O=S(=O)(Nc1ccccc1)c1ccc(Br)cc1
2. CN(c1ccccc1)S(=O)(=O)c1ccc(C(C)(C)C)cc1
3. O=S(=O)(Nc1ccccc1)c1ccc(-c2ccccc2)cc1
4. Cc1ccc(NS(=O)(=O)c2ccc(Oc3ccccc3)cc2)cc1O
5. O=S(=O)(Nc1ccccc1)c1ccc(I)cc1

1: 30 µM; 2: 30 µM; 3: 17 µM; 4: 7 µM; 5: 23 µM

// for each molecule in input: emit GI50
1. CC(C)(C)c1ccc(O)c(C2(c3ccccc3)C(=O)Nc3ccccc32)c1 (configuration not stated)
2. CC(C)(C)c1ccc(S(=O)(=O)Nc2ccccc2)cc1

3 µM
16 µM

---

Test system: A549
Experiment: Concentration required for growth inhibition of human lung cancer cells (A549)
Assay type: functional
Assignment: determine reported GI50 for the given compounds.

Worked cases, GI50 given:
{"Compound": "Cc1cc(O)c(NS(=O)(=O)c2ccc(C(C)(C)C)cc2)cc1C1(c2ccccc2)C(=O)Nc2ccccc21 (configuration not stated)", "GI50": "> 20 µM"}
{"Compound": "Cc1cccc(NS(=O)(=O)c2ccc(C(C)(C)C)cc2)c1", "GI50": "80 µM"}

// for each compound in input: emit GI50
1. Cc1ccc(NS(=O)(=O)c2ccc(C(C)(C)C)cc2)cc1O
2. COc1ccc(S(=O)(=O)Nc2ccccc2)cc1
3. CC(C)(C)c1ccc(S(=O)(=O)Nc2ccccc2O)cc1
4. Cc1ccc(NS(=O)(=O)c2ccc(Br)cc2)cc1O
5. O=[N+]([O-])c1ccc(S(=O)(=O)Nc2ccccc2)cc1
6. O=S(=O)(Nc1ccccc1)c1ccccc1
7. O=C1Nc2ccccc2C1(c1ccccc1)c1ccccc1
8. Cc1cc(C2(c3ccccc3)C(=O)Nc3ccccc32)c(NS(=O)(=O)c2ccc(C(C)(C)C)cc2)cc1O (configuration not stated)

1. 6 µM
2. 16 µM
3. 13 µM
4. 20 µM
5. 52 µM
6. > 80 µM
7. 13 µM
8. 0.8 µM

// for each compound in input: emit GI50
1. Cc1ccccc1NS(=O)(=O)c1ccc(C(C)(C)C)cc1
2. Cc1ccc(NS(=O)(=O)c2ccc(C(C)(C)C)cc2)cc1

["> 80 µM", "11 µM"]
